Source of measurements: patent US11254651B2

Biological target: G9a (Homo sapiens, UniProt Q96KQ7)
Sequence (Q96KQ7 1-1210): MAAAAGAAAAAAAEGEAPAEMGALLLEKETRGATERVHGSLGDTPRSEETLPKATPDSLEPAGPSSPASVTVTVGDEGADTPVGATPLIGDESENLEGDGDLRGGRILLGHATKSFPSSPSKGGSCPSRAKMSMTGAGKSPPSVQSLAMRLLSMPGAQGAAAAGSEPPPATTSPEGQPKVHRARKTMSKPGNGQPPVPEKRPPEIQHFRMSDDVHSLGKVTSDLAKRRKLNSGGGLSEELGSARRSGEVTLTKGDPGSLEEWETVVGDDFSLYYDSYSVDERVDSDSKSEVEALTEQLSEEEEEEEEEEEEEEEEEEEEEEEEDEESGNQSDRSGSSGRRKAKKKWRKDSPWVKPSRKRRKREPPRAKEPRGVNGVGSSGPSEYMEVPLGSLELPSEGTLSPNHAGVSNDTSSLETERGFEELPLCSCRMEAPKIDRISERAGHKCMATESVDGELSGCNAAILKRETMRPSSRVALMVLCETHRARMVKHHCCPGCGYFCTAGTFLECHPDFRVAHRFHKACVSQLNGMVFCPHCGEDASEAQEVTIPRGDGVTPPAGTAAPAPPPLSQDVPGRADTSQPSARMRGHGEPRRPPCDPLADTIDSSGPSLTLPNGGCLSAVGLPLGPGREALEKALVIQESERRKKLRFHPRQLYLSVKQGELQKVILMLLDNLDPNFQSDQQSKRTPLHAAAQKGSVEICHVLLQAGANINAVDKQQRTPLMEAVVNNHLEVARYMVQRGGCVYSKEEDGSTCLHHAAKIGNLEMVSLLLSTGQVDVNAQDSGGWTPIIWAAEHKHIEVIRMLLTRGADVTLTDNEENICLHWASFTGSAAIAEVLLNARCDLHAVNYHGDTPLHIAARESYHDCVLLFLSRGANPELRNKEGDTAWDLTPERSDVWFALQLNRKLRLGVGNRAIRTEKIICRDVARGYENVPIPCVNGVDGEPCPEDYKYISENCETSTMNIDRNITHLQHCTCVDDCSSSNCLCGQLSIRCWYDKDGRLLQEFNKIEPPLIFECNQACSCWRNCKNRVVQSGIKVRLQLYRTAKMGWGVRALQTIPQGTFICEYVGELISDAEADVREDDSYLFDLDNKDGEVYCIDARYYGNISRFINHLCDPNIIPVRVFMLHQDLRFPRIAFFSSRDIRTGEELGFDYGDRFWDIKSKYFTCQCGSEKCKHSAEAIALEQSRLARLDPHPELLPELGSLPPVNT
Structures can show the parent of a compound that is named as a salt.
We begin with a simple list: items and their reported IC50.
observation_type: IC50 (µM)

>>> reported_result("CCOc1c2ccccc2nc2cc(OCCCN3CCCC3)c(OC)cc12 [Entry 7, formate]")
1.4
>>> reported_result("COc1cc2c(N[C@H]3C[C@@H](O)C3)c3c(nc2cc1OCCCN1CCCC1)CCC3")
0.0331
>>> reported_result("COc1cc2c(NC3CC4CCC(C3)O4)c3ccccc3nc2cc1OCCCN1CCCC1 (centres unmarked) [Entry 80, formate]")
0.0653
>>> reported_result("COc1cc2c(NCC3CC3)c3c(nc2cc1OCCCN1CCCC1)CCC3 [Entry 32, formate]")
0.014
>>> reported_result("COCCNc1c2c(nc3cc(OCCCN4CCCC4)c(OC)cc13)CCC2 [Entry 38, formate]")
0.016
>>> reported_result("COc1cc2c(NCC(=O)O)c3ccccc3nc2cc1OCCCN1CCCC1 [Entry 104, formate]")
0.134
>>> reported_result("COc1cc2c(NC(C3CC3)C3CC3)c3c(nc2cc1OCCCN1CCCC1)CCC3 [Entry 65, formate]")
0.0077
>>> reported_result("COc1cc2c(NC3CCN(C(C)C)CC3)c3c(nc2cc1OCCCN1CCCC1)CCCC3 [Entry 16, trifluoroacetate]")
0.011
>>> reported_result("COc1cc2cc3c(nc2cc1OCCCN1CCCC1)CCCC3 [Entry 17, formate]")
0.51
>>> reported_result("COc1cc2c(NC3CCC(C)(O)CC3)c3ccccc3nc2cc1OCCCN1CCCC1 (centres unmarked)")
0.017
>>> reported_result("COC(=O)N1CC(CNc2c3c(nc4cc(OCCCN5CCCC5)c(OC)cc24)CCC3)C1 [Entry 71, formate]")
0.017
>>> reported_result("COc1cc2c(NCc3ccccc3)c3c(nc2cc1OCCCN1CCCC1)CCC3 [Entry 46, formate]")
0.036
>>> reported_result("CNc1c2ccccc2nc2cc(OCCCN3CCC(F)C3)c(OC)cc12 (centres unmarked) [Entry 117, formate]")
0.139
>>> reported_result("COCCCNc1c2c(nc3cc(OCCCN4CCCC4)c(OC)cc13)CCC2 [Entry 73, formate]")
0.0112
>>> reported_result("COc1cc2c(NC3CC(OC)C3)c3c(nc2cc1OCCCN1CCCC1)CCC3 (centres unmarked) [Entry 56, formate]")
0.016
>>> reported_result("COc1cc2c(NC(C)C)c3cnccc3nc2cc1OCCCN1CCCC1 [Entry 121, formate]")
0.0642
>>> reported_result("COc1cc2c(NC3CC(C)OC(C)C3)c3c(nc2cc1OCCCN1CCCC1)CCC3 (centres unmarked) [Entry 53, formate]")
0.0216

###

// values below are reported IC50
Biological target: G9a (Homo sapiens, UniProt Q96KQ7)
Sequence (Q96KQ7 1-1210): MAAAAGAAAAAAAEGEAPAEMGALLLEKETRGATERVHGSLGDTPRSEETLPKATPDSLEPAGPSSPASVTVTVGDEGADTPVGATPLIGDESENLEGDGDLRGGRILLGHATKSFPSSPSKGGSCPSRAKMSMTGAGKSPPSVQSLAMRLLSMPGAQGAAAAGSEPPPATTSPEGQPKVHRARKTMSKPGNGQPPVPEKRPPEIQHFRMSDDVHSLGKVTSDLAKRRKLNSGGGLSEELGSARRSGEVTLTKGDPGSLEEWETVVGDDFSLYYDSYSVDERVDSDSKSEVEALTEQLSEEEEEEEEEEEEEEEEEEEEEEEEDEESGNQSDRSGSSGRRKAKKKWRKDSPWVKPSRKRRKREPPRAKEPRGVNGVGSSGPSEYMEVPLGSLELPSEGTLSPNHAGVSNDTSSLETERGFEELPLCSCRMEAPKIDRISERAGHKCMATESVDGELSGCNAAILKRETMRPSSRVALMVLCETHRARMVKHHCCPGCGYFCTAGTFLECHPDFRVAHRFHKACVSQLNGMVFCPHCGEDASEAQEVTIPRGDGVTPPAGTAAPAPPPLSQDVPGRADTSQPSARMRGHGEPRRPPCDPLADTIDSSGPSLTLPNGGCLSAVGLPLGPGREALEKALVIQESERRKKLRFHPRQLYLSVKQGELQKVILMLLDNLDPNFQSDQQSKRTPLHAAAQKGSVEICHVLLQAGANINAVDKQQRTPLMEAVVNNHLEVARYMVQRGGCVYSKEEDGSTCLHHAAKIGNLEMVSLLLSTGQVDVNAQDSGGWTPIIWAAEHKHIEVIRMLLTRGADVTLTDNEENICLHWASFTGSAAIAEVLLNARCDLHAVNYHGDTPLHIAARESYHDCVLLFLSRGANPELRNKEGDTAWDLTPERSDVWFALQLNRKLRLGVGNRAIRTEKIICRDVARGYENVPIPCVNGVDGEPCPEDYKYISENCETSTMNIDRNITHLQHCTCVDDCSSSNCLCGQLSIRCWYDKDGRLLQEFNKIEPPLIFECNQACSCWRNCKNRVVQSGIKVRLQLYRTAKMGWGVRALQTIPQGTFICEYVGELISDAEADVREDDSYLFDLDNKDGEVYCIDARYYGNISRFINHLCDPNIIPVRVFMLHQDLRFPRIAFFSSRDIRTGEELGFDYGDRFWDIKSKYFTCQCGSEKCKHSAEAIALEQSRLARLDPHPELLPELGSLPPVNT
Counter-ions that a name gives are not always drawn.
observation_type: IC50 (nM)

>>> reported_result("COc1cc2c(NC3CC(=O)N(C4CCC4)C3)c3ccccc3nc2cc1OCCCN1CCCC1 (stereo not shown) [Entry 87, trifluoroacetate]")
18.5
>>> reported_result("CNc1c2ccccc2nc2cc(OCCCN(C)C)c(OC)cc12 [Entry 119, trifluoroacetate]")
28.5
>>> reported_result("COc1cc2c(NC3CNC(=O)C3)c3c(nc2cc1OCCCN1CCCC1)CCC3 (stereo not shown) [Entry 60, trifluoroacetate]")
14.6
>>> reported_result("CNc1c2ccccc2nc2cc(OCCCN3CCCC3)c(C)cc12 [Entry 11, formate]")
1230

###

Let's go through some pIC50 measurements on UniProt:Q96KQ7 together.
pIC50: −log10 of the molar value. Counter-ions that a name gives are not always drawn.
observation_type: pIC50

>>> reported_result("COc1cc2c(Nc3ccn(C)n3)c3c(nc2cc1OCCCN1CCCC1)CCC3 [Entry 70, formate]")
7.45
>>> reported_result("COc1cc2c(NC(C)C)c3ncccc3nc2cc1OCCCN1CCCC1 [Entry 122, formate]")
7.62
>>> reported_result("CNc1c2ccccc2nc2cc(OCCCN3CCCC3)c(Cl)cc12 [Entry 9, formate]")
7.58
>>> reported_result("COc1cc2c(NC(C)C)c3c(nc2cc1OCCCN1CCCC1)CCC3 [Entry 19, formate]")
8.00
>>> reported_result("COc1cc2c(NCC3COC3)c3c(nc2cc1OCCCN1CCCC1)CCC3 [Entry 39, formate]")
7.70
>>> reported_result("CNc1c2ccccc2nc2cc(OCCCN3CCCC3)ccc12 [Entry 10, formate]")
7.25
>>> reported_result("COc1cc2c(NCC3CC3)c3c(nc2cc1OCC1CCN(C)C1)CCC3 (centres unmarked) [Entry 52, formate]")
7.19
>>> reported_result("COc1cc2c(NC(C)C)c3cccc(F)c3nc2cc1OCCCN1CCCC1 [Entry 120, formate]")
7.21
>>> reported_result("COc1ccc2nc3cc(OCCCN4CCCC4)c(OC)cc3c(NC3CCOCC3)c2c1 [Entry 115, trifluoroacetate]")
6.67
>>> reported_result("COc1cc2c(NCC3(C)CC3)c3c(nc2cc1OCCCN1CCCC1)CCC3 [Entry 44, formate]")
7.72
>>> reported_result("COc1cc2c(NC3CCN(C)CC3)c3ccccc3nc2cc1OCCCN1CCCC1 [Entry 4, trifluoroacetate]")
8.96
>>> reported_result("COc1cc2c(NC3CCC(=O)N(C)C3)c3c(nc2cc1OCCCN1CCCC1)CCC3 (centres unmarked) [Entry 58, trifluoroacetate]")
7.33
>>> reported_result("COc1cc2c(NC3CCOCC3)c3ccccc3nc2cc1OCCCN1CCCC1 [Entry 3, trifluoroacetate]")
8.36
>>> reported_result("CNc1c2ccccc2nc2cc(OCCCN3CCCC3)c(OC)cc12")
8.89
>>> reported_result("COc1cc2c(NCCC#N)c3ccccc3nc2cc1OCCCN1CCCC1 [Entry 98, trifluoroacetate]")
8.17
>>> reported_result("COC(=O)CNc1c2ccccc2nc2cc(OCCCN3CCCC3)c(OC)cc12 [Entry 105, formate]")
7.69
>>> reported_result("COc1cc2c(NCCO)c3c(nc2cc1OCCCN1CCCC1)CCC3")
8.12
